Reference source for all entries: the NIST ThermoML archive (doi:10.1021/je900757k)

Test: isobaric coefficient of expansion
Conditions: 318.15 K; 55000 kPa; Liquid; DSC
quantity: isobaric coefficient of expansion

Bench note: what isobaric coefficient of expansion did CCCCCCCCCCCCCC show?
0.000714 1/K

Bench note: what isobaric coefficient of expansion did CCCCCCCCCCCCC show?
0.000718 1/K

Bench note: what isobaric coefficient of expansion did CCCCCCCCC show?
0.000806 1/K

Bench note: what isobaric coefficient of expansion did CCCCCCCCCCCCCCC show?
0.000705 1/K

Bench note: what isobaric coefficient of expansion did CCCCCCCCCC show?
0.000781 1/K

Bench note: what isobaric coefficient of expansion did CCCCCCCCCCCC show?
0.000739 1/K

Bench note: what isobaric coefficient of expansion did c1ccccc1 show?
0.000951 1/K

Bench note: what isobaric coefficient of expansion did CCCCCCCCCCC show?
0.000758 1/K

Bench note: what isobaric coefficient of expansion did ClC(Cl)(Cl)Cl show?
0.00095 1/K

---

Experiment: isobaric coefficient of expansion
Details: 328.15 K; 15000 kPa; Liquid; DSC
Exercise: for every item that follows, state its recorded isobaric coefficient of expansion.

Bench note: what isobaric coefficient of expansion did c1ccccc1 show?
0.00117 1/K

Bench note: what isobaric coefficient of expansion did CCCCCCCCCC show?
0.000977 1/K

Bench note: what isobaric coefficient of expansion did CCCCCCCCCCCC show?
0.000913 1/K

Bench note: what isobaric coefficient of expansion did CCCCCCCCCCC show?
0.00094 1/K

Bench note: what isobaric coefficient of expansion did ClC(Cl)(Cl)Cl show?
0.00118 1/K

Bench note: what isobaric coefficient of expansion did CCCCCCCCCCCCCC show?
0.000859 1/K

Bench note: what isobaric coefficient of expansion did CCCCCCCCC show?
0.00102 1/K

Bench note: what isobaric coefficient of expansion did CCCCCCCCCCCCCCC show?
0.000846 1/K

Bench note: what isobaric coefficient of expansion did CCCCCCCCCCCCC show?
0.00087 1/K

---

Exercise: for every item that follows, state its recorded isobaric coefficient of expansion.
Assay: isobaric coefficient of expansion
Conditions: 288.15 K; 30000 kPa; Liquid; DSC

Bench note: what isobaric coefficient of expansion did CCCCCCCCC [nonane] show?
0.000898 1/K

Bench note: what isobaric coefficient of expansion did CCCCCCCCCC [decane] show?
0.000868 1/K

Bench note: what isobaric coefficient of expansion did CCCCCCCCCCC [undecane] show?
0.000843 1/K

Bench note: what isobaric coefficient of expansion did CCCCCCCCCCCCC [tridecane] show?
0.000796 1/K

Bench note: what isobaric coefficient of expansion did CCCCCCCCCCCC [dodecane] show?
0.000826 1/K

Bench note: what isobaric coefficient of expansion did ClC(Cl)(Cl)Cl [tetrachloromethane] show?
0.00103 1/K

---

Test: isobaric coefficient of expansion
Details: 278.15 K; 50000 kPa; Liquid; DSC
quantity: isobaric coefficient of expansion

Bench note: what isobaric coefficient of expansion did CCCCCCCCC [nonane] show?
0.000811 1/K

Bench note: what isobaric coefficient of expansion did ClC(Cl)(Cl)Cl [tetrachloromethane] show?
0.000943 1/K

Bench note: what isobaric coefficient of expansion did CCCCCCCCCCC [undecane] show?
0.000773 1/K

Bench note: what isobaric coefficient of expansion did CCCCCCCCCC [decane] show?
0.000793 1/K

Bench note: what isobaric coefficient of expansion did CCCCCCCCCCCC [dodecane] show?
0.00076 1/K

---

Assay: isobaric coefficient of expansion
Conditions: 308.15 K; 30000 kPa; Liquid; DSC
quantity: isobaric coefficient of expansion

Bench note: what isobaric coefficient of expansion did CCCCCCCCCCCCCC [tetradecane] show?
0.000793 1/K

Bench note: what isobaric coefficient of expansion did CCCCCCCCCCCCC [tridecane] show?
0.000796 1/K

Bench note: what isobaric coefficient of expansion did CCCCCCCCCCCC [dodecane] show?
0.000831 1/K

Bench note: what isobaric coefficient of expansion did c1ccccc1 [benzene] show?
0.00106 1/K

Bench note: what isobaric coefficient of expansion did CCCCCCCCCCCCCCC [pentadecane] show?
0.000786 1/K

Bench note: what isobaric coefficient of expansion did CCCCCCCCC [nonane] show?
0.000912 1/K

Bench note: what isobaric coefficient of expansion did CCCCCCCCCC [decane] show?
0.000878 1/K

Bench note: what isobaric coefficient of expansion did CCCCCCCCCCC [undecane] show?
0.000848 1/K

Bench note: what isobaric coefficient of expansion did ClC(Cl)(Cl)Cl [tetrachloromethane] show?
0.00105 1/K

---

Exercise: for every item that follows, state its recorded isobaric coefficient of expansion.
Assay: isobaric coefficient of expansion
Details: 318.15 K; 35000 kPa; Liquid; DSC

Bench note: what isobaric coefficient of expansion did CCCCCCCCC [nonane] show?
0.000889 1/K

Bench note: what isobaric coefficient of expansion did CCCCCCCCCC [decane] show?
0.000858 1/K

Bench note: what isobaric coefficient of expansion did CCCCCCCCCCC [undecane] show?
0.000829 1/K

Bench note: what isobaric coefficient of expansion did CCCCCCCCCCCCCC [tetradecane] show?
0.000774 1/K

Bench note: what isobaric coefficient of expansion did c1ccccc1 [benzene] show?
0.00104 1/K

Bench note: what isobaric coefficient of expansion did CCCCCCCCCCCC [dodecane] show?
0.000809 1/K

Bench note: what isobaric coefficient of expansion did ClC(Cl)(Cl)Cl [tetrachloromethane] show?
0.00104 1/K

Bench note: what isobaric coefficient of expansion did CCCCCCCCCCCCCCC [pentadecane] show?
0.000764 1/K

Bench note: what isobaric coefficient of expansion did CCCCCCCCCCCCC [tridecane] show?
0.000781 1/K

---

Experiment: isobaric coefficient of expansion
Conditions: 308.15 K; 25000 kPa; Liquid; DSC
quantity: isobaric coefficient of expansion

Bench note: what isobaric coefficient of expansion did CCCCCCCCCCCCCC show?
0.000814 1/K

Bench note: what isobaric coefficient of expansion did CCCCCCCCCCCCCCC show?
0.000803 1/K

Bench note: what isobaric coefficient of expansion did CCCCCCCCC show?
0.000935 1/K

Bench note: what isobaric coefficient of expansion did ClC(Cl)(Cl)Cl show?
0.00108 1/K

Bench note: what isobaric coefficient of expansion did CCCCCCCCCCCCC show?
0.000814 1/K

Bench note: what isobaric coefficient of expansion did CCCCCCCCCCCC show?
0.00085 1/K

Bench note: what isobaric coefficient of expansion did c1ccccc1 show?
0.00108 1/K

Bench note: what isobaric coefficient of expansion did CCCCCCCCCC show?
0.000902 1/K

Bench note: what isobaric coefficient of expansion did CCCCCCCCCCC show?
0.00087 1/K

---

Assay: isobaric coefficient of expansion
Details: 288.15 K; 15000 kPa; Liquid; DSC
quantity: isobaric coefficient of expansion

Bench note: what isobaric coefficient of expansion did CCCCCCCCCC show?
0.000933 1/K

Bench note: what isobaric coefficient of expansion did CCCCCCCCCCCC show?
0.000881 1/K

Bench note: what isobaric coefficient of expansion did CCCCCCCCC show?
0.000967 1/K

Bench note: what isobaric coefficient of expansion did CCCCCCCCCCCCC show?
0.00084 1/K

Bench note: what isobaric coefficient of expansion did CCCCCCCCCCC show?
0.0009 1/K

Bench note: what isobaric coefficient of expansion did ClC(Cl)(Cl)Cl show?
0.0011 1/K

---

Assay: isobaric coefficient of expansion
Conditions: 348.15 K; 25000 kPa; Liquid; DSC
Exercise: for every item that follows, state its recorded isobaric coefficient of expansion.

Bench note: what isobaric coefficient of expansion did CCCCCCCCCCCCCCC show?
0.000801 1/K

Bench note: what isobaric coefficient of expansion did CCCCCCCCC show?
0.000964 1/K

Bench note: what isobaric coefficient of expansion did ClC(Cl)(Cl)Cl show?
0.00112 1/K

Bench note: what isobaric coefficient of expansion did CCCCCCCCCCCCC show?
0.000833 1/K

Bench note: what isobaric coefficient of expansion did CCCCCCCCCCCC show?
0.000863 1/K

Bench note: what isobaric coefficient of expansion did CCCCCCCCCCCCCC show?
0.000812 1/K

Bench note: what isobaric coefficient of expansion did CCCCCCCCCC show?
0.000922 1/K

Bench note: what isobaric coefficient of expansion did c1ccccc1 show?
0.00111 1/K

Bench note: what isobaric coefficient of expansion did CCCCCCCCCCC show?
0.00089 1/K

---

Assay: isobaric coefficient of expansion
Details: 318.15 K; 15000 kPa; Liquid; DSC
quantity: isobaric coefficient of expansion

Bench note: what isobaric coefficient of expansion did ClC(Cl)(Cl)Cl show?
0.00116 1/K

Bench note: what isobaric coefficient of expansion did CCCCCCCCCCCCC show?
0.000865 1/K

Bench note: what isobaric coefficient of expansion did CCCCCCCCCC show?
0.00097 1/K

Bench note: what isobaric coefficient of expansion did CCCCCCCCCCCCCC show?
0.000863 1/K

Bench note: what isobaric coefficient of expansion did CCCCCCCCCCCCCCC show?
0.00085 1/K

Bench note: what isobaric coefficient of expansion did CCCCCCCCCCCC show?
0.000908 1/K

Bench note: what isobaric coefficient of expansion did c1ccccc1 show?
0.00115 1/K

Bench note: what isobaric coefficient of expansion did CCCCCCCCCCC show?
0.000933 1/K

Bench note: what isobaric coefficient of expansion did CCCCCCCCC show?
0.00101 1/K
